Where do these numbers come from? They come from patent US20260274981A1.

Item-by-item account of koff
Biological target: T1, recombinant human TfR (2474-TR, R&D Systems), biotinylated (human, UniProt P02786 89-760, biotinylated with EZ-Link NHS-PEG4-Biotinylation Kit)
T1 construct: Bought protein; also called immobilized recombinant human TfR; biotinylated human TfR
T1 sequence (P02786 89-760 limits assumed): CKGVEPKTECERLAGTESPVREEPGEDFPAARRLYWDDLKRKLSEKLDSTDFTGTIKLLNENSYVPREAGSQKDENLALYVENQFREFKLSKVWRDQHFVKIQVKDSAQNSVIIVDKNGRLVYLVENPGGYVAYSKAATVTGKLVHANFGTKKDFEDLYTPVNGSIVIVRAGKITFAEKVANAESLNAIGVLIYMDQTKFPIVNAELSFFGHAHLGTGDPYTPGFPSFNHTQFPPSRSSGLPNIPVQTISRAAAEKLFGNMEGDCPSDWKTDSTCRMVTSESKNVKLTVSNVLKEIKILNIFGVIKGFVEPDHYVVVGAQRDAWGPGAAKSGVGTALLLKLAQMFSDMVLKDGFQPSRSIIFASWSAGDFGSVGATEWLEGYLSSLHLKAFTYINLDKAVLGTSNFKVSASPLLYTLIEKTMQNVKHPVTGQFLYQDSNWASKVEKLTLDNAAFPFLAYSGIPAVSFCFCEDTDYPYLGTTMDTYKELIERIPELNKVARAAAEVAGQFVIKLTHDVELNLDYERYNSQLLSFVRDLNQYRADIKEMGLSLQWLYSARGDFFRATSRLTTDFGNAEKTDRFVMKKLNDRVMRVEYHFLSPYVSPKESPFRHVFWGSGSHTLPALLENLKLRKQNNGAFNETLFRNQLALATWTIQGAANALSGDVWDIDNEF
Assay: SPR (Biacore), biotinylated human TfR captured on an SA chip, VHH injected, 1:1 dissociation fit, pH 5.5
Reported endpoint: koff

[[record]]
binder = "BBB00716 (VHH, Histidine mutant) VHH: EVQLVESGGGSVQPGGSLRLSCTASGRTFNYAMGWFRQAPGKNREFVATIDWKDGSSYYLDSVRGRFTIERDDAKNTVYLQMNSLRPEDAAVYTCAVGDGHYCSTYTCAAEVEYDYWGQGTLVTVSS"
reported_endpoint = "koff"
reported_value = "0.00904 s⁻¹"

[[record]]
binder = "BBB00698 (VHH, also called histidine mutant of BBB00515) VHH: EVQLVESGGGSVQPGGSLRLSCTASGRTFHYAMGWFRQAPGKNREFVATIDWKDGSSYYLDSVRGRFTIERDDAKNTVYLQMNSLRPEDAAVYTCAVGDGDYCSTYTCAAEVEYDYWGQGTLVTVSS"
reported_endpoint = "koff"
reported_value = "0.0109 s⁻¹"

